B1: Advillin, residues 785 to 819; numbered along this chain, O75366 (parent)
chain: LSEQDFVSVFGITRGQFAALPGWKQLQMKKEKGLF

Variants of: B1
Experimental details: abundance fitness (aPCA) (normalised: wild type 0, dead -1); higher = more abundant; growth selection in yeast, the domain comes from the species named
Measurement parameters: Homo sapiens

Mutation string: Q16W
abundance fitness: -0.626

Mutation string: L20W
abundance fitness: -0.91

Mutation string: E31T
abundance fitness: -0.645

Mutation string: A18M
abundance fitness: -0.3

Mutation string: D5W
abundance fitness: -1

Mutation string: L26C
abundance fitness: -0.606

Mutation string: G11M
abundance fitness: -0.986

Mutation string: R14T
abundance fitness: -0.205

Mutation string: P21N
abundance fitness: -0.51

Mutation string: P21A
abundance fitness: -0.414

Mutation string: L20H
abundance fitness: -0.487

Mutation string: L20V
abundance fitness: -0.753

Mutation string: W23A
abundance fitness: -0.134

Mutation string: I12P
abundance fitness: -0.713

Mutation string: V9S
abundance fitness: -0.456

Mutation string: W23K
abundance fitness: -0.042

Mutation string: F35C
abundance fitness: 0.179

Mutation string: D5R
abundance fitness: -0.188

Mutation string: E3Q
abundance fitness: -0.225

Mutation string: Q25E
abundance fitness: -0.593

Mutation string: S8G
abundance fitness: -0.026

Mutation string: G33V
abundance fitness: -0.525
